# assay.comment: Displacement of sodium 5-(3-(8-(3-carboxy-N-hydroxyacrylamido)octyl)thioureido)-2-(6-hydroxy-3-oxo-3H-xanthen-9-yl)benzoate from Naegleria Tet-1 incubated for 20 mins followed by sodium 5-(3-(8-(3-carboxy-N-hydroxyacrylamido)octyl)thioureido)-2-(6-hydroxy-3-oxo-3H-xanthen-9-yl)benzoate addition and further incubated 4 hrs and measured upto 20 hrs by competition fluorescence polarization assay
measure: Ki (µM)

>>> number("O=C(O)CC[C@@H](O)C(=O)O")
1700
>>> number("O=C(O)c1ccnc(C(=O)O)c1")
9
>>> number("O=C(O)CNC(=O)C(=O)O")
16
>>> number("O=C(O)CCC(=O)C(=O)O")
83

---

# assay.comment: Binding affinity to Naegleria Tet1 assessed as dissociation constant incubated for 4 hrs and measured upto 20 hrs by fluorescence polarization assay
measure: Kd (nM)

>>> number("O=C(O)/C=C/C(=O)N(O)CCCCCCCCNC(=S)Nc1ccc(-c2c3ccc(=O)cc-3oc3cc(O)ccc23)c(C(=O)O)c1")
250

---

# assay.comment: Displacement of sodium 5-(3-(8-(3-carboxy-N-hydroxyacrylamido)octyl)thioureido)-2-(6-hydroxy-3-oxo-3H-xanthen-9-yl)benzoate from Naegleria Tet-1 incubated for 20 mins followed by sodium 5-(3-(8-(3-carboxy-N-hydroxyacrylamido)octyl)thioureido)-2-(6-hydroxy-3-oxo-3H-xanthen-9-yl)benzoate addition and further incubated 4 hrs and measured upto 20 hrs by competition fluorescence polarization assay
measure: IC50 (µM)

>>> number("O=C(O)CCC(=O)C(=O)O [ALPHA-KETOGLUTARIC ACID]")
250
>>> number("O=C(O)CC[C@@H](O)C(=O)O")
5200
>>> number("O=C(O)CNC(=O)C(=O)O [N-OXALYLGLYCINE]")
49
>>> number("O=C(O)c1ccnc(C(=O)O)c1")
27
